Molecular target: Hsp90α (Homo sapiens, UniProt P07900)
REPORTED_METRIC: pKd
Numbers only, as −log10 of the molar value.

response.value for `CCOc1ncc2c(n1)CCN(C(=O)c1cc(C(C)C)c(O)cc1O)C2` (field: pKd) = 7.57
